Consider the following binders; for each one, report its 100 nM Ag Bound (RU).
Target: T1, Human IL2Rγ extracellular domain expressed with a C-terminal myc-myc-hexahistidine tag (human)
T1 construct: also called hIL-2Rg-MMH; hIL-2RG-MMH
T1 chain: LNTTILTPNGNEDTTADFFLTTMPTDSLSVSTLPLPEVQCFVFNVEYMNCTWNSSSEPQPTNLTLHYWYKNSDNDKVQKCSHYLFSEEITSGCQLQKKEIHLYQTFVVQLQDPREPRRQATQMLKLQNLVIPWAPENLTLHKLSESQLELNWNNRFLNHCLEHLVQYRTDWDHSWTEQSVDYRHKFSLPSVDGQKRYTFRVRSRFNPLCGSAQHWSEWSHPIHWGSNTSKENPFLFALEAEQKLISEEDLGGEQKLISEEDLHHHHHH
Experiment: SPR, captured mAb, 37C, dissociation pH 6.0
The response must be a number in RU with no trailing unit.

The reported 100 nM Ag Bound (RU) of the binder H4H12863P (antibody, human IgG4 S228P, kappa, V domains shown, anti-IL2Rgamma mAb expressed with human IgG4 Fc) VH: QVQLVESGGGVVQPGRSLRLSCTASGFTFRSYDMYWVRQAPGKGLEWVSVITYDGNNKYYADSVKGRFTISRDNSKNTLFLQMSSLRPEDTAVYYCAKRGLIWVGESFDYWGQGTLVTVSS VL: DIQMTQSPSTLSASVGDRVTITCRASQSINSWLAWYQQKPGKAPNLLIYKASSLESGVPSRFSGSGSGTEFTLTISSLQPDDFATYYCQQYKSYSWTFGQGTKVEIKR was 145

The reported 100 nM Ag Bound (RU) of the binder H4H12886P (antibody, human IgG4 S228P, kappa, V domains shown, anti-IL2Rgamma mAb expressed with human IgG4 Fc) VH: EVQLVESGGGLVKPGGSLRLSCAASGFTFSTAWMSWVRQSPGRGLEWVGRMKSKTDGGTTFYAAPVKGRFTISRDDSKNTLYLQMNSLKTEDTAVYYCTTGLVPAFYKYYGVDVWGQGTTVTVSS VL: DIQMTQSPSSLSASVGDRITITCQASQDITNYLNWYQQKPGKAPNLLIYDASNLVTGVPSRFSGSGSGTDFTFTILSLQPEDIATYYCQQYDSLLTFGPGTKVDIKR was 115

The reported 100 nM Ag Bound (RU) of the binder H4H12858P (antibody, human IgG4 S228P, kappa, V domains shown, anti-IL2Rgamma mAb expressed with human IgG4 Fc; also called REGN9433) VH: EVQLVESGGDLVQPGGSLRLSCTASGFIFRNYAMNWVRQAPGKGLEWLSGILGSNDNTYYVDSVKGRFTISRDNSRNTLYLQMNSLRAEDSAVYYCAKGDAGGFDYWGQGTLVTVSS VL: DVVMTQSPLSLPVILGQPASISCRSSQSLVSSDGNTYLNWFQQRPGQSPRRLIYKVSNRDSGVPDRFSGSGSGTDFTLKISRVEAEDVGAYYCMQGSYWPPTFGQGTKLEIKR was 136
